Reference source: patent US5294713A

Each entry below carries its reported IC50.
# Test system: guinea pig platelet aggregation
# assay-details: Inhibitory action on guinea pig platelet aggregation (ADP-stimulated PRP)
# Type: cell-based
# condition-summary: Cavia porcellus, ADP final concentration 1 μM, in vitro, read-out: Inhibitory effect on platelet aggregation in vitro (IC50) guinea pig
# Procedure: TEST EXAMPLE 1 [I] Inhibitory action on guinea pig platelet aggregation Blood was collected in 3.15% sodium citrate (1 ml for 9 ml of blood) by cardiac puncture from male guinea pig. […] The number of platelets was measured using an automatic blood cell counter (Sysmex E2500, Toaiyou-densi). […] Platelet aggregation was measured using an 8-channel aggregometer (NBS HEMA TRACER VI Niko Bioscience Inc.). […]
Provide only the numeric value, understood in nM.

smiles-repr | readout | measured-number
N=C(N)c1ccc(C(=O)NCC(=O)N2CCN(CC(=O)O)C(=O)[C@@H]2CC(=O)O)cc1 | IC50 | 165

Please look up its IC50: `NCCc1ccc(C(=O)NCC(=O)N2CCN(CC(=O)O)C(=O)[C@@H]2CCC(N)=O)cc1` 110

Also `N=C(N)c1ccc(C(=O)NCC(=O)N2CCN(CC(=O)O)C(=O)C2)cc1` , if possible. 210

Also `N=C(N)NC[C@H]1CC[C@H](C(=O)NCC(=O)N2CCN(CC(=O)O)C(=O)[C@@H]2CC(=O)O)CC1` , if possible. 3800

Also `NCCc1ccc(C(=O)NCC(=O)N2CCN(CC(=O)O)C(=O)[C@@H]2CCC(=O)O)cc1` , if possible. 110

Also `COC(=O)C[C@H]1C(=O)N(CC(=O)O)CCN1C(=O)CNC(=O)c1ccc(CCN)cc1` , if possible. 78

Also `N=C(N)NC[C@H]1CC[C@H](C(=O)N[C@@H](Cc2ccccc2)C(=O)N2CCN(CC(=O)O)C(=O)C2)CC1` , if possible. 7000
